Target: Mycobacterial ClpC1-NTD (Mycobacterium tuberculosis)
Construct: caseinolytic protein C1 (ClpC1) N-terminal domain (NTD)
Experiment: SPR binding affinity to ClpC1-NTD
Conditions: ClpC1 N-terminal domain; KD=kd/ka; Table 1; read-out: SPR KD NTD
Description: Analysis of binding affinity to Mycobacterial ClpC1-NTD and FL by SPR. […] Kinetic rate constants (ka and kd) were determined by fitting the double-reference data globally to the 1:1 Langmuir model embedded in the Biacore T200 evaluation software (v3.0). KD values were then calculated from the two rate constants (KD=kd/ka). […]
Reported Kd is given for each of the following compounds.
measured-quantity: Kd

{"columns": ["compound", "target-of-assay", "measured-quantity", "obs-value"],
 "data": [
  ["C/C=C/C[C@@H]1NC(=O)[C@H](CC(C)C)N2C(=O)[C@H](CC(C)[C@H]2OCCC)N(C)C(=O)[C@H](C)NC(=O)[C@H](Cc2ccc(O)c([N+](=O)[O-])c2)NC(=O)[C@H](CC(C)C)N(C)C(=O)[C@H](Cc2cn(C(C)(C)[C@H](O)CCl)c3ccccc23)NC1=O (stereo partly shown)", "Mycobacterial ClpC1-NTD (Mycobacterium tuberculosis)", "Kd", "90.7 nM"],
  ["C/C=C/C[C@@H]1NC(=O)[C@H](CC(C)C)N2C=C(C)C[C@@H](C2=O)N(C)C(=O)[C@H](C)NC(=O)[C@H](Cc2ccc(O)c(N)c2)NC(=O)[C@H](CC(C)C)N(C)C(=O)[C@H](Cc2cn(C(C)(C)[C@H](O)CCl)c3ccccc23)NC1=O", "Mycobacterial ClpC1-NTD (Mycobacterium tuberculosis)", "Kd", "501 nM"],
  ["C/C=C/C[C@@H]1NC(=O)[C@H](CC(C)C)N2C(=O)[C@H](CC(C)[C@H]2OC)N(C)C(=O)[C@H](C)NC(=O)[C@H](Cc2ccc(O)c([N+](=O)[O-])c2)NC(=O)[C@H](CC(C)C)N(C)C(=O)[C@H](Cc2cn(C(C)(C)[C@H](O)CCl)c3ccccc23)NC1=O (stereo partly shown)", "Mycobacterial ClpC1-NTD (Mycobacterium tuberculosis)", "Kd", "123 nM"],
  ["C/C=C/C[C@@H]1NC(=O)[C@H](CC(C)C)N2C=C(C)C[C@@H](C2=O)N(C)C(=O)[C@H](C)NC(=O)[C@H](Cc2ccc(O)c([N+](=O)[O-])c2)NC(=O)[C@H](CC(C)C)N(C)C(=O)[C@H](Cc2cn(C(C)(C)[C@H](O)CCl)c3ccccc23)NC1=O", "Mycobacterial ClpC1-NTD (Mycobacterium tuberculosis)", "Kd", "82.3 nM"],
  ["C/C=C/C[C@@H]1NC(=O)[C@H](CC(C)C)N2C=C(C)C[C@@H](C2=O)N(C)C(=O)[C@H](C)NC(=O)[C@H](Cc2ccc(OC)c([N+](=O)[O-])c2)NC(=O)[C@H](CC(C)C)N(C)C(=O)[C@H](Cc2cn(C(C)(C)[C@H]3CO3)c3ccccc23)NC1=O", "Mycobacterial ClpC1-NTD (Mycobacterium tuberculosis)", "Kd", "580 nM"],
  ["C/C=C/C[C@@H]1NC(=O)[C@H](CC(C)C)N2C=C(C)C[C@@H](C2=O)N(C)C(=O)[C@H](C)NC(=O)[C@H](Cc2ccc3c(c2)N=C(C)CC(C)(C)O3)NC(=O)[C@H](CC(C)C)N(C)C(=O)[C@H](Cc2cn(C(C)(C)[C@H](O)CCl)c3ccccc23)NC1=O", "Mycobacterial ClpC1-NTD (Mycobacterium tuberculosis)", "Kd", "196 nM"],
  ["C/C=C/C[C@@H]1NC(=O)[C@H](CC(C)C)N2C(=O)[C@H](CC(C)[C@H]2OCC)N(C)C(=O)[C@H](C)NC(=O)[C@H](Cc2ccc(O)c([N+](=O)[O-])c2)NC(=O)[C@H](CC(C)C)N(C)C(=O)[C@H](Cc2cn(C(C)(C)[C@H](O)CCl)c3ccccc23)NC1=O (stereo partly shown)", "Mycobacterial ClpC1-NTD (Mycobacterium tuberculosis)", "Kd", "120 nM"]
]}

Origin of the recorded values: patent US20220009967A1
